Tested on: NCI-H460
Assay: NCI tumour cell line growth inhibition, 48 h
The source made the active and inactive calls. No stated cut-off is given here; in the data, active = GI50 up to about 1.1 µM and inactive = higher.
Recorded measurements of GI50, one per entry

compound: CC(C)=CCC/C(C)=C/C=C/C(C)=C/C=C/C(C)=C/C=C/C=C(C)/C=C/C=C(C)/C=C/[C@H]1C(C(C)(C)O)CC[C@]1(C)O (some centres undefined)
GI50: 29.8 µM (inactive)
--
compound: C=C1[C@H](OC(=O)C(C)C)[C@]23CC4(O)[C@@H]5[C@@]6(C)CCC[C@]57C([C@@H]2C[C@@]1(O)[C@H](O)[C@@H]73)N4C6
GI50: > 100 µM (inactive)
--
compound: COC(=O)C(CCCCNC(=O)CNC(=O)OCc1ccccc1)NC(=O)C(CCCCNC(=O)CNC(=O)OCc1ccccc1)NC(=O)OCc1ccccc1 (centres undefined)
GI50: > 100 µM (inactive)
--
compound: CCOC(=O)C(NC(=O)OC(C)(C)C)C(=O)OCC
GI50: > 100 µM (inactive)

---

System: MDA-N
Assay: NCI tumour cell line growth inhibition, 48 h
Calls of active or inactive are those of the source. Rule as the data show it: active = GI50 up to about 1.1 µM and inactive = higher.
Outcomes: active, inactive

compound: C=C1[C@H](OC(=O)C(C)C)[C@]23CC4(O)[C@@H]5[C@@]6(C)CCC[C@]57C([C@@H]2C[C@@]1(O)[C@H](O)[C@@H]73)N4C6
category: inactive

compound: CC(=O)CC12NC(=O)N(C)N=C1N(C)C(=O)N(C)C2=O (centres undefined)
category: inactive

compound: O=c1oc2ccc([N+](=O)[O-])cc2cc1-c1csc(-c2ccccc2)n1
category: inactive

compound: O=C1Oc2ccccc2C1C/C(=N\Nc1ccccc1)c1ccccc1O (centres undefined)
category: inactive

compound: O=C1NC(=S)NC(=O)C1=Cc1ccc(-c2ccccc2)cc1
category: inactive

compound: O=C1N[C@H]2c3c(Cl)sc(Cl)c3/C(=N/O)[C@H]2O1
category: inactive

compound: CC(=O)OCC1OC(NC(=S)Nn2c(=O)[nH]c3ccccc3c2=O)C(OC(C)=O)C(OC(C)=O)C1OC(C)=O (centres undefined)
category: inactive

compound: COC(=O)c1ccc(/C=N/c2cc(C)nn2-c2ccccc2)cc1
category: inactive

compound: O=S(=O)(/N=c1\[nH]c(-c2cc(O)c(O)c(O)c2)cs1)c1ccc(Cl)cc1Cl
category: inactive

compound: CCOC(=O)Nc1cc2c(c(N)n1)N=C(c1ccccc1)[C@H](C)N2 [MIVOBULIN ISETHIONATE]
category: active

compound: COc1cc(OC)c(OC)cc1/C=C/c1cc[n+](C)c2ccccc12
category: inactive

compound: O=C(Nc1cccc(F)c1)c1cc2ccc(O)cc2o/c1=N\c1cccc(F)c1
category: inactive

compound: CCOC(=O)C1(N)CCc2[nH][nH]c(=O)c2C1 (centres undefined)
category: inactive

compound: COc1ccc(N/N=C2\CCOc3ccc(C)cc3C2=O)cc1
category: inactive

compound: CC1(C)CC(=O)c2[nH]c3ccccc3c2CC(=O)NCCc2cn1cn2
category: inactive

compound: CCOC(=O)c1cc(-c2ccc(OC)c(OC)c2)cn1C
category: inactive

compound: CCCCCCCCCCCCC(O)[C@H]1CC[C@H](C(O)CCCCCC(=O)CCCCC2CC(C(C)=O)C(=O)O2)O1 (some centres undefined)
category: inactive

compound: Clc1ccc(Cc2nc3cc(Cl)c(Cl)cc3n2CC2CCCN3CCCCC23)cc1Cl (centres undefined)
category: inactive

compound: CN1Cc2ccccc2S(=O)(=O)n2cccc2C1=O
category: inactive
